Test system: pigweed (Amaranthus retroflexus)
Assay: Test A preemergence, pigweed
Assay type: in vivo
Conditions: 125 g ai/ha, visual injury on 0 to 100 scale (0 no effect, 100 complete control), approximately 10 days
readout.type: Pigweed plant response rating

Cc1cc(Cl)c(C2=NOC3(CCCC3)C2)cc1N(S(=O)(=O)C(F)(F)F)S(=O)(=O)C(F)(F)F; 20
Cc1cc(C)c(C2=NOC3(CCC(C)(C)CC3)C2)cc1NS(=O)(=O)C(F)(F)F; 50
Cc1cc(C)c(C2=NOC3CCCCC23)cc1NS(=O)(=O)C(F)(F)F (racemic) [Compound 125]; 100
Cc1cc(C)c(N(S(=O)(=O)C(F)(F)F)S(=O)(=O)C(F)(F)F)cc1C1=NOC(C(C)(C)C)C1 (stereo not drawn); 20
CCn1nc(Cl)cc(-c2cc(NS(=O)(=O)C(F)(F)F)c(C)cc2C)c1=O; 80
CO[C@@H]1CCCN(C(=O)c2cc(N(S(=O)(=O)C(F)(F)F)S(=O)(=O)C(F)(F)F)c(C)cc2C)C1; 90
Cc1cc(Cl)c(C2=NOC(C)(C)C2)cc1NS(=O)(=O)C(F)(F)F; 70
Cc1cc(C)c(N(S(=O)(=O)C(F)(F)F)S(=O)(=O)C(F)(F)F)cc1C1=NOC2(CCOCC2)C1; 100
CSc1cc(-c2cc(NS(=O)(=O)C(F)(F)F)c(C)cc2C)c(=O)n(C)n1; 10

---

System: horseweed (Erigeron canadensis)
Test: Test A1 postemergence, horseweed
Type: in vivo
Conditions: Postemergence, 125 g ai/ha; 0 to 100 scale
Plant response rating, Horseweed of 80 or higher: rule met. Under 80: rule not met.

Cc1cc(C)c(N(COC(=O)C(C)C)S(=O)(=O)C(F)(F)F)cc1C1=NOC2CCCC12 (stereo not drawn); rule not met
CCc1cc(C)c(N(COC(=O)C(C)(C)C)S(=O)(=O)C(F)(F)F)cc1C1=NOC2CCCC12 (stereo not drawn); rule met
Cc1cc(C2CC2)c(C2=NOC3CCCC23)cc1N(COC(=O)C(C)(C)C)S(=O)(=O)C(F)(F)F (stereo not drawn); rule not met
Cc1cc(C)c(N(COC(=O)OC(C)(C)C)S(=O)(=O)C(F)(F)F)cc1C1=NOC2CCCC12 (stereo not drawn); rule not met
Cc1cc(F)c(NS(=O)(=O)C(F)(F)F)cc1C1=NOC2(CCCC2)C1; rule not met
CCOC(=O)N(c1cc(C(=O)N2CCC(c3ccccc3)CC2)c(C)cc1C)S(=O)(=O)C(F)(F)F; rule not met
COc1cc(C)c(C2=NOC3(CCCC3)C2)cc1NS(=O)(=O)C(F)(F)F; rule not met
Cc1c(C(=O)N2CCC(F)CC2)cc(N(COC(=O)C(C)(C)C)S(=O)(=O)C(F)(F)F)c(C)c1C; rule met
Cc1c(NS(=O)(=O)C(F)(F)F)cc(C2=NOC3CCCC23)c(C)c1C (stereo not drawn); rule not met
Cc1cc(C)c(C2=NOC3OCCC23)cc1NS(=O)(=O)C(F)(F)F (stereo not drawn); rule met
CCOC(=O)N(c1cc(C(=O)N2CCCCC2)c(C)c(C)c1C)S(=O)(=O)C(F)(F)F; rule met
CCOC(=O)N(c1cc(C(=O)N2CCC(C)CC2)c(C)cc1C)S(=O)(=O)C(F)(F)F; rule met

---

Test system: Ryegrass, Italian (Italian ryegrass, Lolium multiflorum)
Experiment: Test A1 preemergence, Ryegrass, Italian
Assay type: in vivo
Details: 125 g ai/ha, 0 to 100 scale, 0 no effect, 100 complete control
readout.type: Plant response rating, Ryegrass, Italian

Cc1c(NS(=O)(=O)C(F)(F)F)cc(C(=O)N2CCC(C)CC2)c(C)c1C; 40
C#CCN(C)C(=O)c1cc(NS(=O)(=O)C(F)(F)F)c(C)c(C)c1C; 100
Cc1c(NS(=O)(=O)C(F)(F)F)cc(C(=O)N2CC(C)OC(C)C2)c(C)c1C (centres unmarked) [Compound 328]; 100
CCOC(=O)N(c1cc(C(=O)N2CCC(c3ccccc3)CC2)c(C)cc1C)S(=O)(=O)C(F)(F)F; 30
Cc1c(NS(=O)(=O)C(F)(F)F)cc(C(=O)N(C)C)c(C)c1Cl; 90
Cc1cc(C)c(N(COC(=O)OC(C)C)S(=O)(=O)C(F)(F)F)cc1C1=NOC2CCCC12 (centres unmarked); 90
Cc1cc(F)c(NS(=O)(=O)C(F)(F)F)cc1C1=NOC2(CCCC2)C1; 100
Cc1cc(C)c(N(C(=O)OC(C)C)S(=O)(=O)C(F)(F)F)cc1C1=NOC2CCCC12 (centres unmarked); 70

---

A collection of compounds and their measured Plant response rating, Pigweed
Tested on: pigweed (Amaranthus retroflexus)
Experiment: Test A postemergence, pigweed
Type: in vivo
Conditions: Postemergence, 125 g ai/ha; visual injury approx. 10 days; 0 to 100 scale (0 no effect, 100 complete control)
Source text: Seeds of plant species selected from barnyardgrass (Echinochloa crus-galli), kochia (Bassia scoparia), ragweed (common ragweed, Ambrosia artemisiifolia), Ryegrass, Italian (Italian ryegrass, Lolium multiflorum), Foxtail, Giant (giant foxtail, Setaria faberi), and pigweed (Amaranthus retroflexus) were planted into a blend of loam soil and sand and treated preemergence with a directed soil spray using test chemicals formulated in a non-phytotoxic solvent mixture which included a surfactant. […]
readout.type: Plant response rating, Pigweed

Cc1cc(Cl)c(NS(=O)(=O)C(F)(F)F)cc1C(=O)N1CCSCC1 [Compound 26]; 50
COc1cc(C)c(NS(=O)(=O)C(F)(F)F)cc1-c1ccnn(C)c1=O [Compound 81]; 20
Cc1cc(C)c(N(S(C)(=O)=O)S(=O)(=O)C(F)(F)F)cc1-c1ccnn(C)c1=O [Compound 73]; 60
CCN(CC)C(=O)c1cc(NS(=O)(=O)C(F)(F)F)c(Cl)cc1C [Compound 21]; 0
Cc1cc(C)c(C2=NOC(C(C)(C)C)C2)cc1NS(=O)(=O)C(F)(F)F (centres unmarked) [Compound 108]; 0
Cc1cc(C)c(-c2ccnn(C(C)C)c2=O)cc1NS(=O)(=O)C(F)(F)F [Compound 78]; 0
COc1cnn(C)c(=O)c1-c1cc(NS(=O)(=O)C(F)(F)F)c(C)cc1C [Compound 65]; 0
COC1(OC)CCN(C(=O)c2cc(NS(=O)(=O)C(F)(F)F)c(C)cc2C)CC1 [Compound 101]; 70
COc1cc(-c2cc(N(S(=O)(=O)C(F)(F)F)S(=O)(=O)C(F)(F)F)c(C)cc2C)c(=O)n(C)n1 [Compound 35]; 30
CCc1cc(-c2cc(N(S(=O)(=O)C(F)(F)F)S(=O)(=O)C(F)(F)F)c(C)cc2C)c(=O)n(C)n1 [Compound 28]; 0
CCCn1nccc(-c2cc(NS(=O)(=O)C(F)(F)F)c(C)cc2C)c1=O [Compound 58]; 0

---

Test system: Foxtail, Giant (giant foxtail, Setaria faberi)
Assay: Test A1 preemergence, Foxtail, Giant
Format: in vivo
Details: 125 g ai/ha, 0 to 100 scale, 0 no effect, 100 complete control
A collection of compounds and their measured Plant response rating, Foxtail, Giant
readout.type: Plant response rating, Foxtail, Giant

Cc1cc(C)c(N(COC(=O)C(C)(C)C)S(=O)(=O)C(F)(F)F)cc1C(=O)N1CCC(C)CC1 [Compound 353]; 80
Cc1cc(C)c(N(COC(=O)OC(C)(C)C)S(=O)(=O)C(F)(F)F)cc1C1=NOC2CCCC12 (stereo not drawn) [Compound 316]; 30
Cc1cc(C)c(N(COC(=O)C(C)(C)C)S(=O)(=O)C(F)(F)F)cc1C1=NOC(C(C)C)C1 (stereo not drawn) [Compound 383]; 20
COC1CCCN(C(=O)c2cc(NS(=O)(=O)C(F)(F)F)c(Cl)c(F)c2C)C1 (stereo not drawn) [Compound 334]; 70
Cc1c(C(=O)N2CCC(Cl)CC2)cc(N(COC(=O)C(C)(C)C)S(=O)(=O)C(F)(F)F)c(C)c1C [Compound 359]; 90
Cc1c(C(=O)N2CCC(F)(F)CC2)cc(N(COC(=O)C(C)(C)C)S(=O)(=O)C(F)(F)F)c(C)c1C [Compound 360]; 40

---

A collection of compounds and their measured Plant response rating, Corn
Test system: corn (Zea mays)
Experiment: Test A1 postemergence, corn
Type: in vivo
Settings: Postemergence, 125 g ai/ha; 0 to 100 scale
readout.type: Plant response rating, Corn

CCOC(=O)N(c1cc(C(=O)N2C[C@@H](C)O[C@H](C)C2)c(C)c(C)c1C)S(=O)(=O)C(F)(F)F (relative stereo) [Compound 374]; 70
Cc1c(C(=O)N2CCOCC2)cc(NS(=O)(=O)C(F)(F)F)c(Cl)c1F [Compound 321]; 20
Cc1cc(C)c(N(C(=O)OC(C)C)S(=O)(=O)C(F)(F)F)cc1C1=NOC2CCCC12 (stereo not shown) [Compound 295]; 0
CCOC(=O)N(c1cc(C2=NOC3CCCC23)c(CC)cc1C)S(=O)(=O)C(F)(F)F (stereo not shown) [Compound 379]; 0
Cc1cc(C)c(-n2nccc(C)c2=O)cc1NS(=O)(=O)C(F)(F)F [Compound 281]; 0
Cc1c(C(=O)N2CCC(F)CC2)cc(N(COC(=O)C(C)(C)C)S(=O)(=O)C(F)(F)F)c(C)c1C [Compound 361]; 40
Cc1cc(C)c(N(COC(=O)C(C)(C)C)S(=O)(=O)C(F)(F)F)cc1C1=NOC2COCC12 (stereo not shown) [Compound 301]; 30
Cc1c(C(=O)N2CCC(F)(F)CC2)cc(N(COC(=O)C(C)(C)C)S(=O)(=O)C(F)(F)F)c(C)c1C [Compound 360]; 0
Cc1cc(C)c(C2=NOC3COCC23)cc1NS(=O)(=O)C(F)(F)F (stereo not shown) [Compound 297]; 0
COCC1CC(c2cc(NS(=O)(=O)C(F)(F)F)c(C)cc2C)=NO1 (stereo not shown) [Compound 319]; 80
Cc1cc(C)c(N(COC(=O)C(C)C)S(=O)(=O)C(F)(F)F)cc1C1=NOC2CCCC12 (stereo not shown) [Compound 308]; 30
CCOC(=O)N(c1cc(C(=O)N2CCC(C)CC2)c(C)cc1C)S(=O)(=O)C(F)(F)F [Compound 354]; 0
C#CCN(C)C(=O)c1cc(NS(=O)(=O)C(F)(F)F)c(Cl)c(F)c1C [Compound 337]; 40
CCC1ON=C(c2cc(N(C(=O)OCC(C)C)S(=O)(=O)C(F)(F)F)c(C)cc2C)C1CC (stereo not shown) [Compound 348]; 20
COC(=O)OCN(c1cc(C2=NOC3CCCC23)c(C)cc1C)S(=O)(=O)C(F)(F)F (stereo not shown) [Compound 315]; 20
Cc1c(C(=O)N2C[C@@H](C)O[C@@H](C)C2)cc(N(COC(=O)C(C)(C)C)S(=O)(=O)C(F)(F)F)c(C)c1C [Compound 331]; 50

All figures here come from patent US20230278972A1.
